# Acetylcholinesterase (Electrophorus electricus, UniProt O42275): pIC50 values follow
# Sequence (O42275 whole entry): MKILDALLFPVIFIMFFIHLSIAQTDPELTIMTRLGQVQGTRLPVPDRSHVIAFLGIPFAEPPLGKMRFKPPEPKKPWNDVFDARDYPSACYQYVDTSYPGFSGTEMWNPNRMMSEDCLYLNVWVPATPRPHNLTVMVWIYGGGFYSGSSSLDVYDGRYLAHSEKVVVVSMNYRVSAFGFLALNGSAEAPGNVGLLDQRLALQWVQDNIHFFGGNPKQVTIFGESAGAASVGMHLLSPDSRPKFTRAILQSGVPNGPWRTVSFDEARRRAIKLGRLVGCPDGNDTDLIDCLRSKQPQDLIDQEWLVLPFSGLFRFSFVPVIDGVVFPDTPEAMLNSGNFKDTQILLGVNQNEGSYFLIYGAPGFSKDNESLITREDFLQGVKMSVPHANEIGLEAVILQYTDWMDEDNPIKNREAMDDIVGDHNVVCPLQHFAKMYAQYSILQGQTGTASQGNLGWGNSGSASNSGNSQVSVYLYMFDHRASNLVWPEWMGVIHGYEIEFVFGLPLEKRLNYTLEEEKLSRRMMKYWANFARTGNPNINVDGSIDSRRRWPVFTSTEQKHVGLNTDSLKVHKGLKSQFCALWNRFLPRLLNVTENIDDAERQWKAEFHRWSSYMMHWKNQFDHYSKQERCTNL
pIC50: −log10 of the molar value.
RECORDED_METRIC: pIC50

smiles_input=COc1ccc(CC(=O)Nc2ccc(CN(C)Cc3ccccc3)cc2)cc1OC experimental_system="Acetylcholinesterase (Electrophorus electricus, UniProt O42275)" assay_result=5.97
smiles_input=CCN(Cc1ccccc1)Cc1ccc(NC(=O)Cc2ccc(OC)c(O)c2)cc1 experimental_system="Acetylcholinesterase (Electrophorus electricus, UniProt O42275)" assay_result=5.72
smiles_input=COc1cc2cc(-c3ccc(CN(C)Cc4ccccc4)cc3)c(=O)oc2cc1OC experimental_system="Acetylcholinesterase (Electrophorus electricus, UniProt O42275)" assay_result=7.40
smiles_input=CN(Cc1ccccc1)Cc1ccc(NC(=O)Cc2ccc(O)cc2)cc1 experimental_system="Acetylcholinesterase (Electrophorus electricus, UniProt O42275)" assay_result=5.65
smiles_input=CCN(Cc1ccccc1)Cc1ccc(NC(=O)Cc2ccccc2)cc1 experimental_system="Acetylcholinesterase (Electrophorus electricus, UniProt O42275)" assay_result=5.18
smiles_input=CCN(Cc1ccccc1)Cc1ccc(NC(=O)Cc2ccc(O)cc2)cc1 experimental_system="Acetylcholinesterase (Electrophorus electricus, UniProt O42275)" assay_result=5.42
smiles_input=CN(Cc1ccccc1)Cc1ccc(NC(=O)/C=C/c2ccc(O)cc2)cc1 experimental_system="Acetylcholinesterase (Electrophorus electricus, UniProt O42275)" assay_result=5.31
smiles_input=COc1ccc(CC(=O)Nc2ccc(CN(C)Cc3ccccc3)cc2)cc1O experimental_system="Acetylcholinesterase (Electrophorus electricus, UniProt O42275)" assay_result=5.98
smiles_input=CCN(Cc1ccccc1)Cc1ccc(NC(=O)Cc2ccc(OC)c(OC)c2)cc1 experimental_system="Acetylcholinesterase (Electrophorus electricus, UniProt O42275)" assay_result=5.81
smiles_input=CN(Cc1ccccc1)Cc1ccc(NC(=O)Cc2ccccc2)cc1 experimental_system="Acetylcholinesterase (Electrophorus electricus, UniProt O42275)" assay_result=5.49
smiles_input=CN(Cc1ccccc1)Cc1ccc(NC(=O)Cc2ccc(O)c(O)c2)cc1 experimental_system="Acetylcholinesterase (Electrophorus electricus, UniProt O42275)" assay_result=5.77

###

The following compounds are shown together with reported inhibition values.
- EXPERIMENTAL_SYSTEM: UniProt:P05067
- Sequence (P05067 whole entry): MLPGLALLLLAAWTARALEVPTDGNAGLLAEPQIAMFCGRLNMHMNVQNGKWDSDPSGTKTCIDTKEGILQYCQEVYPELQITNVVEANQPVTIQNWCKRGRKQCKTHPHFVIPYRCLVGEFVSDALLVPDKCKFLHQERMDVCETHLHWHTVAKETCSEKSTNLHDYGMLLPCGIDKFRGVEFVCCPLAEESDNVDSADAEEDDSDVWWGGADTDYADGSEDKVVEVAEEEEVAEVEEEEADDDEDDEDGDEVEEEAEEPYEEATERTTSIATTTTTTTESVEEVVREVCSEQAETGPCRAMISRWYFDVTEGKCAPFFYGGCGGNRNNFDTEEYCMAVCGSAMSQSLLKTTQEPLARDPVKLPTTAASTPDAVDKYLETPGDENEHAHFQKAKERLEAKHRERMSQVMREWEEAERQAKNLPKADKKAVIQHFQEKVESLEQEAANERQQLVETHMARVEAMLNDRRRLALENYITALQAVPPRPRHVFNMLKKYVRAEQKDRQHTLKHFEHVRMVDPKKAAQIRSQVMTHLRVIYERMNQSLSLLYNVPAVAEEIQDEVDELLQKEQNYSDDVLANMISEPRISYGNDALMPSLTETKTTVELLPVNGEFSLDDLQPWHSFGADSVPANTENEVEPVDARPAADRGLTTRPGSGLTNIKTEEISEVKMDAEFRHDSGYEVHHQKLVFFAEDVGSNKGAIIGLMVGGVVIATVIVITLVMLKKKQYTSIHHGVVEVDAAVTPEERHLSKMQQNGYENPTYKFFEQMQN
- ASSAY_EXPLANATION: Inhibition of HFIP pretreated amyloid beta (1 to 42) (unknown origin) self-aggregation at 20 uM after 48 hrs by thioflavin T fluorescence assay relative to control
RECORDED_METRIC: inhibition (%)

smiles_input=COc1ccc(CC(=O)Nc2ccc(CN(C)Cc3ccccc3)cc2)cc1O experimental_system=UniProt:P05067 result_unit=% assay_result=42.5
smiles_input=CN(Cc1ccccc1)Cc1ccc(NC(=O)CCc2ccccc2)cc1 experimental_system=UniProt:P05067 result_unit=% assay_result=35.2
smiles_input=CN(Cc1ccccc1)Cc1ccc(NC(=O)Cc2ccc(O)c(O)c2)cc1 experimental_system=UniProt:P05067 result_unit=% assay_result=40.5
smiles_input=CCN(Cc1ccccc1)Cc1ccc(NC(=O)Cc2ccc(O)cc2)cc1 experimental_system=UniProt:P05067 result_unit=% assay_result=42.1
smiles_input=CN(Cc1ccccc1)Cc1ccc(NC(=O)/C=C/c2ccc(O)cc2)cc1 experimental_system=UniProt:P05067 result_unit=% assay_result=56.6
smiles_input=COc1ccc(/C=C/C(=O)Nc2ccc(CN(C)Cc3ccccc3)cc2)cc1 experimental_system=UniProt:P05067 result_unit=% assay_result=57.8

###

- ASSAY_EXPLANATION: Effective permeability of compound at 50 ug/mL after 16 hrs by PAMPA-BBB assay
For each record, check the reported Papp at 16 h, 50 ug/mL: if it is below 4 ×10⁻⁶ cm/s write Met, else write Not met.

smiles_input=NCCc1ccc(O)c(O)c1 group=Met
smiles_input=COc1ccc(CC(=O)Nc2ccc(CN(C)Cc3ccccc3)cc2)cc1O group="Not met"
smiles_input=CC(=O)[C@H]1CC[C@H]2[C@@H]3CCC4=CC(=O)CC[C@]4(C)[C@H]3CC[C@]12C group="Not met"
smiles_input=COc1ccc(/C=C/C(=O)Nc2ccc(CN(C)Cc3ccccc3)cc2)cc1OC group="Not met"
smiles_input=CCN(Cc1ccccc1)Cc1ccc(NC(=O)Cc2ccc(O)c(O)c2)cc1 group="Not met"
smiles_input=CN1C(C(=O)Nc2ccccn2)=C(O)c2ccccc2S1(=O)=O group=Met
smiles_input=Clc1cccc(Cl)c1N=C1NCCN1 group=Met
smiles_input=CN(Cc1ccccc1)Cc1ccc(NC(=O)/C=C/c2ccc(O)c(O)c2)cc1 group="Not met"
smiles_input=COc1cc(/C=C/C(=O)Nc2ccc(CN(C)Cc3ccccc3)cc2)ccc1O group="Not met"

###

- EXPERIMENTAL_SYSTEM: Cholinesterase (Equus caballus)
- ASSAY_EXPLANATION: Inhibition of equine serum BChE using S-butyrylthiocholine iodide as substrate preincubated for 5 mins followed by substrate addition measured up to 180 secs by spectrophotometric analysis
For each record, check the reported IC50: if it is below 8 µM write 1, else write -1.

smiles_input=CN(Cc1ccccc1)Cc1ccc(NC(=O)CCc2ccccc2)cc1 group=1
smiles_input=COc1cc(/C=C/C(=O)Nc2ccc(CN(C)Cc3ccccc3)cc2)ccc1O group=-1
smiles_input=COc1ccc(/C=C/C(=O)Nc2ccc(CN(C)Cc3ccccc3)cc2)cc1OC group=1
smiles_input=CCN(Cc1ccccc1)Cc1ccc(NC(=O)Cc2ccccc2)cc1 group=-1
smiles_input=CCN(Cc1ccccc1)Cc1ccc(NC(=O)CCc2ccccc2)cc1 group=-1
smiles_input=CN(Cc1ccccc1)Cc1ccc(NC(=O)Cc2ccccc2)cc1 group=1
smiles_input=CCN(Cc1ccccc1)Cc1ccc(NC(=O)Cc2ccc(O)c(O)c2)cc1 group=1
smiles_input=CN(Cc1ccccc1)Cc1ccc(NC(=O)/C=C/c2ccc(O)c(O)c2)cc1 group=-1
smiles_input=CCN(Cc1ccccc1)Cc1ccc(NC(=O)c2ccccc2)cc1 group=-1

###

- EXPERIMENTAL_SYSTEM: Cholinesterase (Equus caballus)
- ASSAY_EXPLANATION: Inhibition of equine serum BChE using S-butyrylthiocholine iodide as substrate preincubated for 5 mins followed by substrate addition measured up to 180 secs by spectrophotometric analysis
For each record, check the reported IC50: if it is below 8 µM write Yes, else write No.

smiles_input=CN(Cc1ccccc1)Cc1ccc(NC(=O)Cc2ccc(O)c(O)c2)cc1 group=Yes
smiles_input=CCN(Cc1ccccc1)Cc1ccc(NC(=O)Cc2ccc(O)cc2)cc1 group=Yes
smiles_input=CN(Cc1ccccc1)Cc1ccc(NC(=O)/C=C/c2ccc(O)cc2)cc1 group=No
smiles_input=COc1cc2cc(-c3ccc(CN(C)Cc4ccccc4)cc3)c(=O)oc2cc1OC group=No
smiles_input=CN(Cc1ccccc1)Cc1ccc(NC(=O)c2ccccc2)cc1 group=Yes

###

pIC50: −log10 of the molar value.
# Acetylcholinesterase (Homo sapiens): pIC50 values follow
# Sequence (P22303 whole entry): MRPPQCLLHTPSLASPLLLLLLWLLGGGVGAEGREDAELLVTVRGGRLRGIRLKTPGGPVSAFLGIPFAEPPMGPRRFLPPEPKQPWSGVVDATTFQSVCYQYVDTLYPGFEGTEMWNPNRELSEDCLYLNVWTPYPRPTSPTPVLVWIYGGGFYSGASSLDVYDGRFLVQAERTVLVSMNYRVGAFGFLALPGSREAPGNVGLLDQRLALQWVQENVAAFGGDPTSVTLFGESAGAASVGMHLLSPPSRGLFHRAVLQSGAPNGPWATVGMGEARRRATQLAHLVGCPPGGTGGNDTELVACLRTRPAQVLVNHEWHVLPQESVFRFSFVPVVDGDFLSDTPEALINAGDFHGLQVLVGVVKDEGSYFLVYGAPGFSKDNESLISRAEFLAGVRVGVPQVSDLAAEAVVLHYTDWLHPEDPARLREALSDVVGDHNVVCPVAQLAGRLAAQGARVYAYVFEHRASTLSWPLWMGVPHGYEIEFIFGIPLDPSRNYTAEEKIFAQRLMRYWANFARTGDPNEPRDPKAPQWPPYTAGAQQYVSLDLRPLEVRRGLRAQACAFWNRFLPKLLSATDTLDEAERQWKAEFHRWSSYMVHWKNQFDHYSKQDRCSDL
RECORDED_METRIC: pIC50

smiles_input=CCN(Cc1ccccc1)Cc1ccc(NC(=O)Cc2ccc(O)cc2)cc1 experimental_system="Acetylcholinesterase (Homo sapiens)" recorded_metric=pIC50 assay_result=5.19
smiles_input=COc1cc(/C=C/C(=O)Nc2ccc(CN(C)Cc3ccccc3)cc2)ccc1O experimental_system="Acetylcholinesterase (Homo sapiens)" recorded_metric=pIC50 assay_result=5.08
smiles_input=CCN(Cc1ccccc1)Cc1ccc(NC(=O)Cc2ccc(OC)c(OC)c2)cc1 experimental_system="Acetylcholinesterase (Homo sapiens)" recorded_metric=pIC50 assay_result=5.49
smiles_input=COc1ccc(CC(=O)Nc2ccc(CN(C)Cc3ccccc3)cc2)cc1O experimental_system="Acetylcholinesterase (Homo sapiens)" recorded_metric=pIC50 assay_result=5.52
smiles_input=COc1ccc(CC(=O)Nc2ccc(CN(C)Cc3ccccc3)cc2)cc1OC experimental_system="Acetylcholinesterase (Homo sapiens)" recorded_metric=pIC50 assay_result=5.73

###

- EXPERIMENTAL_SYSTEM: Cholinesterase (Equus caballus, UniProt P81908)
- Sequence (P81908 whole entry): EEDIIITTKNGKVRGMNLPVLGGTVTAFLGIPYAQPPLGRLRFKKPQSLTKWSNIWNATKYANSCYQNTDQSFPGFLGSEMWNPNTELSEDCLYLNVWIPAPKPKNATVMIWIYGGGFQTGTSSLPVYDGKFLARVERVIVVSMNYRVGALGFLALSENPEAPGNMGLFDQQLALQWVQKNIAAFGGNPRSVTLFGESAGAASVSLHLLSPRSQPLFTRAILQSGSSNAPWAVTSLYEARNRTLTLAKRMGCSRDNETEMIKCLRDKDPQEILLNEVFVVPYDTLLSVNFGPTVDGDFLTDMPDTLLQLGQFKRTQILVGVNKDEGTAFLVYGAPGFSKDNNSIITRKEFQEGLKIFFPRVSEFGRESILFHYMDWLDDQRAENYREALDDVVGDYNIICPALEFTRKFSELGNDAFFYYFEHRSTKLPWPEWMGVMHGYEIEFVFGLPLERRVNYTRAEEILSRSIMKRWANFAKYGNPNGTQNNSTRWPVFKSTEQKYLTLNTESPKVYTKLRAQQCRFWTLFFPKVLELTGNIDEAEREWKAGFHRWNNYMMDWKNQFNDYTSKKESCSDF
- ASSAY_EXPLANATION: Inhibition of equine serum BChE using S-butyrylthiocholine iodide as substrate preincubated for 5 mins followed by substrate addition measured up to 180 secs by spectrophotometric analysis
RECORDED_METRIC: IC50

smiles_input=COc1ccc(CC(=O)Nc2ccc(CN(C)Cc3ccccc3)cc2)cc1OC recorded_metric=IC50 assay_result="1.48 µM"
smiles_input=CCN(Cc1ccccc1)Cc1ccc(NC(=O)Cc2ccc(OC)c(O)c2)cc1 recorded_metric=IC50 assay_result="3.29 µM"
smiles_input=CCN(Cc1ccccc1)Cc1ccc(NC(=O)Cc2ccc(OC)c(OC)c2)cc1 recorded_metric=IC50 assay_result="3.3 µM"
smiles_input=COc1ccc(CC(=O)Nc2ccc(CN(C)Cc3ccccc3)cc2)cc1O recorded_metric=IC50 assay_result="2.4 µM"
smiles_input=CN(Cc1ccccc1)Cc1ccc(NC(=O)Cc2ccc(O)cc2)cc1 recorded_metric=IC50 assay_result="3.48 µM"

###

- Tested on: PC-12
- ASSAY_EXPLANATION: Cytotoxicity against rat PC12 cells at 1.25 to 50 uM after 24 hrs by MTT assay
- Format: cell-based
- EXPERIMENTAL_SETUP: pc-12, 24 h
RECORDED_METRIC: Activity

smiles_input=CN(Cc1ccccc1)Cc1ccc(NC(=O)Cc2ccc(O)c(O)c2)cc1 assay_result=Non-Toxic
smiles_input=COc1cc(/C=C/C(=O)Nc2ccc(CN(C)Cc3ccccc3)cc2)ccc1O assay_result=Non-Toxic
smiles_input=COc1ccc(CC(=O)Nc2ccc(CN(C)Cc3ccccc3)cc2)cc1O assay_result=Non-Toxic
smiles_input=CCN(Cc1ccccc1)Cc1ccc(NC(=O)Cc2ccc(O)c(O)c2)cc1 assay_result=Non-Toxic
smiles_input=CN(Cc1ccccc1)Cc1ccc(NC(=O)/C=C/c2ccc(O)c(O)c2)cc1 assay_result=Non-Toxic

Cited source: ChEMBL document CHEMBL4190315
